- Organism: Homo sapiens
- protocol_summary: Selectivity index, ratio of Ki for human D3 receptor expressed in CHO cell membranes to Ki for human D2short receptor expressed in CHO cell membranes
- Assay type: cell-based
Field 'label' (enum: TRUE / FALSE). Set to TRUE when Ratio Ki is strictly under 0.6; else FALSE.

These solved cases illustrate the format of a correct answer.
molecule: COc1cc(CCN2CCC(O)(c3ccc(Cl)cc3)CC2)ccc1OCCSSCCN
category_label: TRUE

molecule: O=C(CCCN1CCC(O)(c2ccc(Cl)cc2)CC1)c1ccc(OCCSSCCO)cc1
category_label: FALSE

Please state whether Ratio Ki is below 0.6 for O=C(NCCN1CCC(O)(c2ccc(Cl)cc2)CC1)NCCN1C(=O)C=CC1=O
TRUE

Please state whether Ratio Ki is below 0.6 for [N-]=[N+]=NCCSSCCn1cc(C(=O)CCCN2CCC(O)(c3ccc(Cl)cc3)CC2)nn1
FALSE

Please state whether Ratio Ki is below 0.6 for COc1cc(CCN2CCC(O)(c3ccc(Cl)cc3)CC2)ccc1OCCCSSCCN
FALSE
